Target: T1, human PTHrP (1-34) (human)
T1 construct: Synthetic peptide (Peninsula; Peptide Research Institute), coated on ELISA plates at 1 ug/ml; added at 1 ng/ml final in the cAMP assay; also called parathyroid hormone related peptide (1-34)
Assay: ELISA, plate coated with human PTHrP (1-34)

{"binder": "mouse FR1,2/human FR3,4 hybrid antibody, L-chain m/hMBC1Laλ (antibody, V domains shown, H-chain from hMBC1HcDNA/pCOS1 (humanized version a, human Cgamma1); human lambda C-region) VH: QVQLVESGGGVVQPGRSLRLSCAASGFTFSSYGMSWVRQAPGKGLEWVATISSGGSYTYYPDSVKGRFTISRDNSKNTLYLQMNSLRAEDTAVYYCARQTTMTYFAYWGQGTLVTVSS VL: QLVLTQSSSASFSLGASAKLTCTLSSQHSTYTIEWYQQQPLKPPKYVMDLKQDGSHSTGDGIPDRFSGSSSGAERYLTISSLQSEDEADYYCGVGDTIKEQFVYVFGGGTKLTVL", "binding result": "binds"}
{"binder": "humanized #23-57-137-1 antibody having L-chain version \"q\" (antibody, V domains shown, Humanized H-chain version a with human Cgamma1; human lambda C-region; COS-7 expressed (also CHO); also called hMBC1HcDNA/pCOS1 and hMBC1Lqλ/pCOS1) VH: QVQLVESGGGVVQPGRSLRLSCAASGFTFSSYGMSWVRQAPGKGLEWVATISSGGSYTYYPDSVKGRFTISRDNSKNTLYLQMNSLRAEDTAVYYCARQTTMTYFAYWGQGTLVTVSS VL: QLVLTQSPSASASLGASVKLTCTLSSQHSTYTIEWYQQQPEKGPKYLMDLKQDGSHSTGDGIPDRFSGSSSGAERYLTISSLQSEDEADYICGVGDTIKEQFVYVFGGGTKLTVLG", "binding result": "binds"}
